# Tested on: HCI01 (cells of a triple-negative basal-like breast cancer xenograft);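 further: cells dissociated from PDX tumors propagated in female NSG mouse mammary fat pads, vehicle control 0.1% DMSO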
# Method summary: cell viability (% of vehicle); higher = less cytotoxic
# Reported conditions: 1 µM; 72 h
So basically: is cell viability under 90? Then fulfilled. Not under? Then not fulfilled.

# Molecule, Group
measured = [
    ("COC(=O)NC(C(=O)N1CCCC1c1ncc(-c2ccc(-c3ccc(-c4cnc(C5CCCN5C(=O)C(NC(=O)OC)C(C)C)[nH]4)cc3)cc2)[nH]1)C(C)C (stereo unspecified)", "fulfilled"),
    ("Cc1cn(-c2cc(NC(=O)c3ccc(C)c(Nc4nccc(-c5cccnc5)n4)c3)cc(C(F)(F)F)c2)cn1 [Nilotinib(AMN-107)]", "fulfilled"),
    ("CC(=O)c1cc2c(o1)C(=O)c1ccccc1C2=O [Napabucasin]", "fulfilled"),
    ("COCCn1c2c([n+](Cc3cnccn3)c1C)C(=O)c1ccccc1C2=O.[Br-]", "fulfilled"),
    ("CC(O)C(=O)O.CCOc1ccc2nc3cc(N)ccc3c(N)c2c1.O [Ethacridine lactate monohydrate]", "fulfilled"),
    ("CCCCc1oc2ccccc2c1C(=O)c1cc(I)c(OCCN(CC)CC)c(I)c1.Cl [Amiodarone HCl]", "not fulfilled"),
]

The reported numbers originate from the supplement of paper PMC6992640.
